Listing of entries alongside the reported TGI.
Tested on: TK-10 renal
procedure text: NCI tumour cell line growth inhibition, 48 h

{"molecule": "CCOC(=O)C1=CC(C)(C(=O)OCC)Nc2c(nc(SC)n(C)c2=O)N1 (stereo not given)", "TGI": "> 10 µM"}
{"molecule": "Clc1ccc(/C=N/Nc2nnc3c4ccccc4c4ncccc4c3n2)cc1", "TGI": "> 10 µM"}
{"molecule": "NC(=O)C[C@H](NC(=O)C1(NC(=O)[C@H](Cc2ccc(CP(=O)(O)O)cc2)NC(=O)C(=O)O)CCCCC1)C(=O)NCCCc1cccc2ccccc12", "TGI": "> 10 µM"}
{"molecule": "COc1cc2c(cc1OC)C(CC1(O)CCCCC1)N(S(=O)(=O)c1ccc(C)cc1)CC2 (stereo not given)", "TGI": "> 10 µM"}

Let us move to another entry and its TGI.
Bench note: what TGI did CC1C2CC(CC2N)C1(C)C (stereo not given) show? > 100 µM

* * *

System: UACC-62 melanoma
procedure text: NCI tumour cell line growth inhibition, 48 h; in the data active = GI50 below about 0.43 µM; inactive = the rest
Valid outcomes are listed here; reply with one: active, inactive

Identify the outcome logged in this assay for the compound shown: CC(C)(c1ccc(Oc2ccc(C#N)c(C#N)c2)cc1)c1ccc(Oc2ccc(C#N)c(C#N)c2)cc1 inactive

Identify the outcome logged in this assay for the compound shown: COc1ccc(-c2cn(-c3cccc(C(=O)/C=C/c4ccc(O)c(OC)c4)c3)c(=O)[nH]2)cc1 inactive

Identify the outcome logged in this assay for the compound shown: COc1ccc([I+]c2ccccc2)cc1 inactive

Identify the outcome logged in this assay for the compound shown: O=C1c2cc(-c3ccccc3)ccc2-c2c1c1ccc([N+](=O)[O-])cc1c(=O)n2CCCBr inactive

Identify the outcome logged in this assay for the compound shown: CN[C@@H]1C[C@H]2O[C@@](C)([C@@H]1OC)n1c3ccccc3c3c4c(c5c6ccccc6n2c5c31)C(=O)N[C@H]4O active

Identify the outcome logged in this assay for the compound shown: Cn1cc(-c2nc(-c3c[nH]c4ccncc34)cs2)c2cc(F)ccc21 inactive

Identify the outcome logged in this assay for the compound shown: CCCOC(=O)N[C@H]1CCc2cc(OC)c(OC)c(OC)c2-c2ccc(SC)c(=O)cc21 active

* * *

Tested on: HCT-15 colon
procedure text: NCI tumour cell line growth inhibition, 48 h
attribute measured: TGI

Field: TGI (HCT-15 colon). Entry: O=C(O)CN(CC(=O)O)Cc1ccn(-c2cccc(-n3ccc(CN(CC(=O)O)CC(=O)O)n3)n2)n1 > 100 µM

Field: TGI (HCT-15 colon). Entry: C=CC[N+](CCO)(CCO)CCCCCCCCCCCCCCCCCC 41.4 µM

Field: TGI (HCT-15 colon). Entry: CC(C)(O)[C@@H]1CC[C@@]2(C)CCC[C@H](O)[C@H]2C1 > 100 µM

Field: TGI (HCT-15 colon). Entry: CN(C)CCCNc1cnc2cc3ccccc3cc2n1 56 µM

Field: TGI (HCT-15 colon). Entry: COc1ccc(C2=Nc3c/c(=C\c4c(O)[nH]c5ccc(Cl)cc45)ccc3=N2)cc1 2.77 µM

Field: TGI (HCT-15 colon). Entry: CCCCCCCC(=O)OCC1OC(n2cc(F)c(=O)[nH]c2=O)C(NC(=O)OCc2ccccc2)C(O)C1O (centres undefined) > 100 µM

Field: TGI (HCT-15 colon). Entry: CCOC(=O)Cn1nnc2cc(Nc3nc4ccccc4nc3C(=O)OCC)ccc21 > 100 µM

Field: TGI (HCT-15 colon). Entry: CCOc1ccc2nc(-c3cccc(OCC(=O)NC(C)C)c3)nc(Nc3ccc(-c4cn[nH]c4)cc3)c2c1 3.69 µM

Field: TGI (HCT-15 colon). Entry: C=CC[C@@H]1C=C[C@@H](C(=O)OC)n2c(=O)n(-c3ccccc3)c(=O)n21 > 100 µM

Field: TGI (HCT-15 colon). Entry: COc1cccc2c1-c1c(OC)cccc1SS2 33.3 µM

Field: TGI (HCT-15 colon). Entry: CCOC(=O)C1C[C@H]2CO[C@H](c3ccccc3)N2C1=O (some centres undefined) > 100 µM

Field: TGI (HCT-15 colon). Entry: CC1(C)N=C(N)N=C(N)N1c1ccc(CCc2ccc(Cl)cc2S(=O)(=O)F)c(Cl)c1 > 100 µM

Field: TGI (HCT-15 colon). Entry: NC(=O)C(=Cc1ccc(CP(=O)(O)O)cc1)C(N)=O > 100 µM

* * *

Tested on: XF 498 CNS
procedure text: NCI tumour cell line growth inhibition, 48 h
attribute measured: TGI

Here's what some known entries look like.
{"compound": "COC(=O)[C@@]1(O)CC(C)C=C1C=O (stereo not given in full)", "assayed target": "XF 498 CNS", "TGI": "> 100 µM"}
{"compound": "Cc1ccc(C(=O)N2c3ccccc3N(C)n3cccc3C2CC(=O)O)cc1 (stereo not given)", "assayed target": "XF 498 CNS", "TGI": "> 100 µM"}
{"compound": "Cc1ccc(-c2cc(=O)c3cc(C)c(C)c(C(=O)O)c3o2)cc1", "assayed target": "XF 498 CNS", "TGI": "> 100 µM"}

Field: TGI (XF 498 CNS). Entry: COC(=O)[C@@]12OC[C@]34C([C@@H](O)C1O)[C@@]1(C)CC(=O)C(O)=C(C)C1C[C@H]3OC(=O)[C@H](OC(=O)/C=C(/c1ccccc1)C(F)(F)F)[C@H]42 (stereo not given in full) 10.6 µM

Field: TGI (XF 498 CNS). Entry: C[C@H](CN1CC(=O)NC(=O)C1)N1CC(=O)NC(=O)C1 > 100 µM

* * *

Listing of entries alongside the reported TGI.
Tested on: KM12 colon
procedure text: NCI tumour cell line growth inhibition, 48 h

Bench note: what TGI did CCCCN=C(NC#N)N(Cc1ccccc1)Cc1ccccc1 show? > 100 µM

Bench note: what TGI did Cc1cc(Nc2ccc(F)cc2)nc(N2CCN(c3ccnc4cc(Cl)ccc34)CC2)n1 show? 75 µM

* * *

System: OVCAR-4 ovarian
procedure text: NCI tumour cell line growth inhibition, 48 h
attribute measured: TGI

Here's what some known entries look like.
{"compound": "O=S(=O)(O)c1cc(Nc2ccnc3ccccc23)c2c(S(=O)(=O)O)cc(S(=O)(=O)O)cc2c1", "assayed target": "OVCAR-4 ovarian", "TGI": "> 100 µM"}
{"compound": "CCCC(=O)Nc1cc(/C=C/C(=O)N2CC(CCl)c3c2cc([N+](=O)[O-])c2ccccc32)n(C)c1 (stereo not given)", "assayed target": "OVCAR-4 ovarian", "TGI": "> 100 µM"}
{"compound": "N/C(=N\\N=C\\c1cc2c(cc1Cl)OCO2)NO", "assayed target": "OVCAR-4 ovarian", "TGI": "> 100 µM"}

Bench note: what TGI did COc1cc2cc3c4c(cc(OC)c(OC)c4c2cc1OC)CCN3C(=O)N(C)C show? > 100 µM

Bench note: what TGI did O=C1NC(=O)C(c2ccc(Cl)cc2)=C1Nc1ccc(Cl)c(C(=O)O)c1 show? > 25 µM

* * *

System: 786-0 renal
procedure text: NCI tumour cell line growth inhibition, 48 h; in the data active = GI50 below about 0.43 µM; inactive = the rest
Valid outcomes are listed here; reply with one: Y (active), N (inactive)

Consider the worked cases shown below.
{"smiles input": "COc1ccc2c3c(c4ccccc4cc13)C(=O)N(CCN(C)CCN)C2=O", "assayed target": "786-0 renal", "class": "Y"}
{"smiles input": "O=C(O)c1ccc2c3c(ncnc13)-c1ccccc1C2=O", "assayed target": "786-0 renal", "class": "N"}

Identify the outcome logged in this assay for the compound shown: C[n+]1c2ccccc2c(Nc2ccc(NS(=O)(=O)CCCCN=C(N)N)cc2)c2ccc(N)cc21 N

Identify the outcome logged in this assay for the compound shown: O=C1c2cc(-c3ccccc3)ccc2-c2c1c1ccc([N+](=O)[O-])cc1c(=O)n2CCCBr N

* * *

Listing of entries alongside the reported TGI.
System: SK-MEL-28 melanoma
procedure text: NCI tumour cell line growth inhibition, 48 h

Bench note: what TGI did CSC1(SC)N2Cc3ccccc3N=C2C1(c1ccccc1)c1ccccc1 show? > 59.5 µM

Bench note: what TGI did COc1ccc(N=N/C(=N/NC(=O)c2cc(Cl)ccc2C(=O)c2ccccc2)c2ccc(N(CCC#N)CCC#N)cc2C)cc1 show? > 100 µM

* * *

Listing of entries alongside the reported TGI.
System: MCF7 breast
procedure text: NCI tumour cell line growth inhibition, 48 h

{"molecule": "CC1=Nc2c(C#N)ncn2N=C(C)C1", "assayed target": "MCF7 breast", "recorded measurement": "> 100 µM"}
{"molecule": "CNC(=O)c1ccccc1[S+]1c2cccc3cccc(c23)C(=O)N1C (stereo not drawn)", "assayed target": "MCF7 breast", "recorded measurement": "> 100 µM"}

Bench note: what TGI did O=S(=O)(O)c1cc(Nc2ccnc3ccccc23)c2c(S(=O)(=O)O)cc(S(=O)(=O)O)cc2c1 show? > 100 µM

Values compiled from PubChem BioAssay (NCI).
